measurementTarget: mouse ADAMTS7 (Mus musculus)
Construct: Full-length mouse Adamts7 1-1857 (Uniprot Q68SA9, WT or E373Q catalytic mutant); expressed in transfected cells; host or cells: Human Coronary Artery Smooth Muscle Cells (HCA-SMC, Lonza), adenovirus 50 MOI
Sequence (Q68SA9 221-1657): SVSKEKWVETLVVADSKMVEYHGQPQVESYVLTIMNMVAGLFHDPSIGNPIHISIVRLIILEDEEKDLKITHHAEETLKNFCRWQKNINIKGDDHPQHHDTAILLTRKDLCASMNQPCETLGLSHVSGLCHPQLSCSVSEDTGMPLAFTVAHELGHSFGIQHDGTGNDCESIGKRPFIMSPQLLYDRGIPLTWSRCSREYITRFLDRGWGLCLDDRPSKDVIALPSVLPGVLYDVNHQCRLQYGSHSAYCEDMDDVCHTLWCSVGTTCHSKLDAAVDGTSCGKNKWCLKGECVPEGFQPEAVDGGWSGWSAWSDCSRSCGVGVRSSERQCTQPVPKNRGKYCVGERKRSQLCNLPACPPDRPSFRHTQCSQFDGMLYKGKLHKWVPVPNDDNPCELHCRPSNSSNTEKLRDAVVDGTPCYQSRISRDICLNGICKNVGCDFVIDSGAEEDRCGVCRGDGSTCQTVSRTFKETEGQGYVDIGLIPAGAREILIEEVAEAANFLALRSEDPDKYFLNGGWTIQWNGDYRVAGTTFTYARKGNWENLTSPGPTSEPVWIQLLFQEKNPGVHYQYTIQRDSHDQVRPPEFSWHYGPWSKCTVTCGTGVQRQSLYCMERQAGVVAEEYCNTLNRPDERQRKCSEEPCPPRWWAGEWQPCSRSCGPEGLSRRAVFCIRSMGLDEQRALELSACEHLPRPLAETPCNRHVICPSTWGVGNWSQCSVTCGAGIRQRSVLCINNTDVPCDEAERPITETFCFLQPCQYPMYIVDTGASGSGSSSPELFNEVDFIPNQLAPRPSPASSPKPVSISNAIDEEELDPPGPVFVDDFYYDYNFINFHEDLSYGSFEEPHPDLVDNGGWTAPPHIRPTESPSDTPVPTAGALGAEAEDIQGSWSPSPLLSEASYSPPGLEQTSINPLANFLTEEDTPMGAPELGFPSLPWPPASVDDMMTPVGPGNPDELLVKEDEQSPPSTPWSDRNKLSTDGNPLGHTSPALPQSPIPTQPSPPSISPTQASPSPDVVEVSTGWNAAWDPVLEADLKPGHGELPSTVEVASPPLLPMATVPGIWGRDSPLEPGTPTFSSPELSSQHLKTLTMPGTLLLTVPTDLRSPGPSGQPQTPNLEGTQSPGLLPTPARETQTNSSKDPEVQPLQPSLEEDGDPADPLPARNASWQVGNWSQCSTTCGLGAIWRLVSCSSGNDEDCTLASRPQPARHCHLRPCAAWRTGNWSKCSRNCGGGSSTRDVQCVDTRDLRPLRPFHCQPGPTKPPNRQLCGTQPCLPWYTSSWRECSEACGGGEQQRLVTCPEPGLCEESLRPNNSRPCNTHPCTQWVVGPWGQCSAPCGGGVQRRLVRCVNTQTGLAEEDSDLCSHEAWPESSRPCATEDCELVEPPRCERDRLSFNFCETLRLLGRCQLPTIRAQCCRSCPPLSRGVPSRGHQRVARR
procedureDetails: TMT10 TAILS N-terminomics, SMC2 experiment (process replicates, trypsin/AspN digest)
Type: cell-based
runConditions: SMC2_TAILS HC; log fold change, mWT over Luc
Square brackets hold non-standard residues; d marks the D form. Ends that are not written are not given here.
readoutKind: logFC.mWT.over.Luc
One number for each entry.

* CEP192_728 (DKSTAGR; listed as Homo sapiens) | 2.33
* HSPG2_275 (LLPGSVR; listed as Homo sapiens) | 1.74
* CALU_176 (FTAFLHPEEY; listed as Homo sapiens) | 2.37
* LASP1_182 (SYGGYKEPAAPVSIQR; listed as Homo sapiens) | 0.87

Each of the following entries comes with a recorded value; kindly state logFC.mWT.over.Luc for each.
1. LOX_125 (FQAGYSTSR; listed as Homo sapiens)
2. FN1_1693 (LQPTVEYVVSVYAQNPSG; listed as Homo sapiens)
3. APLP2_452 (LVETHLAR; listed as Homo sapiens)
4. FN1_35 ([code q]MVQPQSPVAVSQSKPGCY; not fully specified (residue 2); listed as Homo sapiens)

A:
1. 3.45
2. 1.99
3. 2.70
4. 1.99
